Molecular target: Prostaglandin G/H synthase 1 (Ovis aries, UniProt P05979)
Sequence (P05979 whole entry): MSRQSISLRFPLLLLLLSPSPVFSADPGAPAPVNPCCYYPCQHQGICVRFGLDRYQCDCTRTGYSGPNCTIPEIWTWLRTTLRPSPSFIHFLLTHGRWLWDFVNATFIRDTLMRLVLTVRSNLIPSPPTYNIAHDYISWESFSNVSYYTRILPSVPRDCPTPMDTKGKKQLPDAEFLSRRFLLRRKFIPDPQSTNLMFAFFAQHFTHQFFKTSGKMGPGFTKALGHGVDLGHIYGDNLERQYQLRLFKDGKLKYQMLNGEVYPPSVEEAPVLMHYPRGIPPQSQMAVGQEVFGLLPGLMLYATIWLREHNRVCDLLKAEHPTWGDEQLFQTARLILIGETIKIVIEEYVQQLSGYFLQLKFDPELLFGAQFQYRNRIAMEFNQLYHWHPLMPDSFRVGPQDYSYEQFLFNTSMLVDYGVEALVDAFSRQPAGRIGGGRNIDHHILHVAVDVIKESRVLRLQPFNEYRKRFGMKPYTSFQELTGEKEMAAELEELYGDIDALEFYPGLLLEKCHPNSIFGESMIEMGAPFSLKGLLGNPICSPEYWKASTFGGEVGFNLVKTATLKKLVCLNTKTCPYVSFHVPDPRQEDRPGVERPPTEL
Readout: pIC50
Reminder that pIC50 is minus the log10 of a molar concentration.

Example cases with answers are listed next.
{"columns": ["Smiles Str", "pIC50"],
 "data": [
  ["Cc1nc2oc(-c3ccc(Cl)cc3)nn2c(=O)c1CCN1CCN(c2ccccc2)CC1", 6.83],
  ["COc1ccc(N2CCN(CCc3c(C)nc4oc(-c5ccccc5)nn4c3=O)CC2)cc1", 6.85],
  ["COc1ccc(N2CCN(CCc3c(C)nc4oc(-c5ccc(Cl)cc5)nn4c3=O)CC2)cc1", 6.46]
]}

Below: the item to evaluate.
*Q* Form field: reported pIC50 of Cc1nc2oc(-c3ccccc3)nn2c(=O)c1CCN1CCCCC1
*A* 6.46

----------
assay: Ulcerogenic activity in fasted albino rat assessed as severity of ulcers at 28 uM/kg, po administered for 3 consecutive days (reference value: 0 %); format: toxicity, organism-based; details: in vivo, 72 h, time 3 day
compounds and their reported Activity
// units = %; emit number, no label

Example cases with answers are listed next.
{"columns": ["Compound", "Numeric Value"],
 "data": [
  ["COc1ccc2c(c1)c(CC(=O)O)c(C)n2C(=O)c1ccc(Cl)cc1 [INDOMETHACIN]", 1.18],
  ["Cc1nc2oc(-c3ccc(Cl)cc3)nn2c(=O)c1CCN1CCN(c2ccccc2)CC1", 1],
  ["COc1ccc(N2CCN(CCc3c(C)nc4oc(-c5ccc(Cl)cc5)nn4c3=O)CC2)cc1", 1]
]}

*Q* Form field: reported Activity of COc1ccc(N2CCN(CCc3c(C)nc4oc(-c5ccccc5)nn4c3=O)CC2)cc1
*A* 1

*Q* Form field: reported Activity of Cc1nc2oc(-c3ccccc3)nn2c(=O)c1CCN1CCCCC1
*A* 1.2

----------
system: Rattus norvegicus; assay: Analgesic activity against p-benzoquinone induced writhing in albino rat model assessed as protection rate at 28 uM/kg, ip measured after 30 mins relative to control; format: functional; conditions: 0.5 h, at 28 µmol/kg
molecules and their reported Activity
// units = %; emit number, no label

Example cases with answers are listed next.
{"columns": ["Smiles Str", "Units", "Numeric Value"],
 "data": [
  ["Cc1nc2sc(-c3ccc(Cl)cc3)nn2c(=O)c1CCN1CCCCC1", "%", 50],
  ["COc1ccc(N2CCN(CCc3c(C)nc4oc(-c5ccccc5)nn4c3=O)CC2)cc1", "%", 100],
  ["COc1ccc2c(c1)c(CC(=O)O)c(C)n2C(=O)c1ccc(Cl)cc1", "%", 83],
  ["Cc1nc2sc(-c3ccc(Cl)cc3)nn2c(=O)c1CCN1CCOCC1", "%", 66],
  ["Cc1nc2oc(-c3ccccc3)nn2c(=O)c1CCN1CCN(c2ccccc2)CC1", "%", 50]
]}

*Q* Form field: reported Activity of Cc1nc2oc(-c3ccccc3)nn2c(=O)c1CCN1CCOCC1
*A* 50

*Q* Form field: reported Activity of Cc1nc2oc(-c3ccccc3)nn2c(=O)c1CCN1CCCCC1
*A* 83

*Q* Form field: reported Activity of Cc1nc2oc(-c3ccc(Cl)cc3)nn2c(=O)c1CCN1CCOCC1
*A* 66

*Q* Form field: reported Activity of COc1ccc(N2CCN(CCc3c(C)nc4sc(-c5ccc(Cl)cc5)nn4c3=O)CC2)cc1
*A* 66

*Q* Form field: reported Activity of COc1ccc(N2CCN(CCc3c(C)nc4oc(-c5ccc(Cl)cc5)nn4c3=O)CC2)cc1
*A* 83

*Q* Form field: reported Activity of Cc1nc2oc(-c3ccc(Cl)cc3)nn2c(=O)c1CCN1CCN(c2ccccc2)CC1
*A* 83

*Q* Form field: reported Activity of Cc1nc2sc(-c3ccc(Cl)cc3)nn2c(=O)c1CCN1CCN(c2ccccc2)CC1
*A* 66

*Q* Form field: reported Activity of Cc1nc2oc(-c3ccc(Cl)cc3)nn2c(=O)c1CCN1CCCCC1
*A* 66

Numbers sourced from ChEMBL document CHEMBL4842336.
